# credit: patent US20110118447A1

Each entry below lists one item and its recorded fold difference in affinity vs original value.
- test.system: binding partner of C5A (XPA23)
- test.method.notes: Biacore K-off
measured.metric: fold difference in affinity vs original (fold)

[[record]]
binder = "C5A (XPA23) VL P95S (antibody, V domains shown) VH: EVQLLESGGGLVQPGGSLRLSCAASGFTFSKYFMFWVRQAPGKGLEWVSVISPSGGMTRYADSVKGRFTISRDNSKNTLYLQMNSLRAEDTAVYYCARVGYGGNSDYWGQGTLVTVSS VL: DIQMTQSPSSVSASVGDRLTIICRASQDINRWLAWYQQTPGNAPKLLIHSATSLQSGVPSRFSGSGSGTDFTLTINSLQPEDFATYYCQQADSFSLTFGGGTKVEIK"
measured_metric = "fold difference in affinity vs original"
readout_unit = "fold"
endpoint_result = 4.05

[[record]]
binder = "C5A (XPA23) VL H49W (antibody, V domains shown) VH: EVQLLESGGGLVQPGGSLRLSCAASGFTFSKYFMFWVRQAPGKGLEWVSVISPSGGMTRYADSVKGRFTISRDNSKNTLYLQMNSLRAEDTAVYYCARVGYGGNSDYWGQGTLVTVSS VL: DIQMTQSPSSVSASVGDRLTIICRASQDINRWLAWYQQTPGNAPKLLIWSATSLQSGVPSRFSGSGSGTDFTLTINSLQPEDFATYYCQQADSFPLTFGGGTKVEIK"
measured_metric = "fold difference in affinity vs original"
readout_unit = "fold"
endpoint_result = 0.21

[[record]]
binder = "C5A (XPA23) VL D28T (antibody, V domains shown) VH: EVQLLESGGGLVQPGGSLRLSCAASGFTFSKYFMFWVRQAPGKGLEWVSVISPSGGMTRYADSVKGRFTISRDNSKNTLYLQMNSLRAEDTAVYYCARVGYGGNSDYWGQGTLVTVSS VL: DIQMTQSPSSVSASVGDRLTIICRASQTINRWLAWYQQTPGNAPKLLIHSATSLQSGVPSRFSGSGSGTDFTLTINSLQPEDFATYYCQQADSFPLTFGGGTKVEIK"
measured_metric = "fold difference in affinity vs original"
readout_unit = "fold"
endpoint_result = 1.19

